target-desc: T1, Recombinant Human TNF-α/TNFSF1A (human, UniProt P01375 77-233)
T1 construct: also called hTNF-α; huTNFα
T1 sequence (P01375 77-233 limits assumed): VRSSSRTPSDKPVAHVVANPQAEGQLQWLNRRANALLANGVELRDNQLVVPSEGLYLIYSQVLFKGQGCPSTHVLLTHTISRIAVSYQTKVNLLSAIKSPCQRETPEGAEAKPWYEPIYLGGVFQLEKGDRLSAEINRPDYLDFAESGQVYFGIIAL
measurement-description: SPR (BIACORE), antibody captured, TNFα in solution
pKd: −log10 of the molar value.
Listing: pKd of selected binders

| binder | pKd |
| --- | --- |
| AB371 (antibody, V domains shown, Full-length humanized antibody made in HEK 293-6E; also called hMAK199VH.2/hMAK199VL.1b) VH: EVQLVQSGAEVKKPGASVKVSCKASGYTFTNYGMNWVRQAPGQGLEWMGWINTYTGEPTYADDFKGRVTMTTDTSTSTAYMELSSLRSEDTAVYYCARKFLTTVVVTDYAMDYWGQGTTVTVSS VL: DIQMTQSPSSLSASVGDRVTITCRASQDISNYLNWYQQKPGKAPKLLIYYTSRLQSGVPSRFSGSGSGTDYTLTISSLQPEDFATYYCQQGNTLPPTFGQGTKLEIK | 8.92 |
| AB374 (antibody, V domains shown, Full-length humanized antibody made in HEK 293-6E; also called hMAK199VH.2/hMAK199VL.2b) VH: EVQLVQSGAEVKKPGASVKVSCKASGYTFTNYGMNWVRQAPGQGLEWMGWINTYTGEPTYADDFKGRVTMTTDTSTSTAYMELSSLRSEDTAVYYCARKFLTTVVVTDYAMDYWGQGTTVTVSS VL: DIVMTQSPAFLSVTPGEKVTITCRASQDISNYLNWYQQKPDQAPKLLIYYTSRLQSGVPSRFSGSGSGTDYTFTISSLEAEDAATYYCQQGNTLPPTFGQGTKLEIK | 8.89 |
| AB356 (antibody, V domains shown, Full-length humanized antibody made in HEK 293-6E; also called hMAK199VH.1/hMAK199VL.2b) VH: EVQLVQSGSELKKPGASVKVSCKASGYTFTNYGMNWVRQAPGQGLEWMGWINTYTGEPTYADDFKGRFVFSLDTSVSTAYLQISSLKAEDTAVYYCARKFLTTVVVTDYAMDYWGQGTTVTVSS VL: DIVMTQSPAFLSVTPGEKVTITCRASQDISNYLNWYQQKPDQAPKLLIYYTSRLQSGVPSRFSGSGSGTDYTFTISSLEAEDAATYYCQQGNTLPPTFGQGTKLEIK | 9.17 |
| AB365 (antibody, V domains shown, Full-length humanized antibody made in HEK 293-6E; also called hMAK199VH.1b/hMAK199VL.1b) VH: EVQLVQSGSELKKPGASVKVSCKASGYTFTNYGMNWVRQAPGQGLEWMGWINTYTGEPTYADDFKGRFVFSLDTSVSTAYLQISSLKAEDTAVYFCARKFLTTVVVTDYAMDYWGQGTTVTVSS VL: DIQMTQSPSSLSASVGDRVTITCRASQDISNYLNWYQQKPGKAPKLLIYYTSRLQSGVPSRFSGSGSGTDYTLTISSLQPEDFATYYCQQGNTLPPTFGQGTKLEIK | 9.04 |
| AB378 (antibody, V domains shown, Full-length humanized antibody made in HEK 293-6E; also called hMAK199VH.2a/hMAK199VL.2) VH: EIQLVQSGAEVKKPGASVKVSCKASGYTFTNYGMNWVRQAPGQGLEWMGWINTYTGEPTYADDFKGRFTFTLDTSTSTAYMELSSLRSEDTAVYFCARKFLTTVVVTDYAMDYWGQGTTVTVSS VL: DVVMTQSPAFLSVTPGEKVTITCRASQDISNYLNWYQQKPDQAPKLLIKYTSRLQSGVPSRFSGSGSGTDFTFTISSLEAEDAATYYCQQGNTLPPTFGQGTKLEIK | 8.85 |
